- test: Oral bioavailability in CD-1 mouse at 2 mg/kg by LC-MS/MS analysis
- Format: ADME, organism-based
- condition.description: in vivo
metric: bioavailability (%)
Respond with the bare value in %.

[in] What value of bioavailability has been recorded for this entry: Cc1[nH]nc(-c2ccncc2)c1-c1ccc(-c2cccc(S(N)(=O)=O)c2)c(C2CC2)c1
[out] 111

----------
- test: Half life in CD-1 mouse at 0.5 mg/kg, iv by LC-MS/MS analysis
- Type: ADME, organism-based
- condition.description: in vivo
metric: half-life (min)
Respond with the bare value in min.

[in] What value of half-life has been recorded for this entry: Cc1[nH]nc(-c2ccncc2)c1-c1ccc(-c2cccc(S(N)(=O)=O)c2)c(C2CC2)c1
[out] 48

----------
- test: MRT in CD-1 mouse at 2 mg/kg, po by LC-MS/MS analysis
- Type: ADME, organism-based
- condition.description: in vivo
metric: MRT (h)
Respond with the bare value in h.

[in] What value of MRT has been recorded for this entry: Cc1[nH]nc(-c2ccncc2)c1-c1ccc(-c2cccc(S(N)(=O)=O)c2)c(C2CC2)c1
[out] 3.01

----------
- test: Half life in CD-1 mouse at 2 mg/kg, po by LC-MS/MS analysis
- Type: ADME, organism-based
- condition.description: in vivo
metric: half-life (h)
Respond with the bare value in h.

[in] What value of half-life has been recorded for this entry: Cc1[nH]nc(-c2ccncc2)c1-c1ccc(-c2cccc(S(N)(=O)=O)c2)c(C2CC2)c1
[out] 1.25

----------
- test: Cmax in CD-1 mouse at 2 mg/kg, po by LC-MS/MS analysis
- Assay type: ADME, organism-based
- Parameters: dose 2 mg/kg, route po
- condition.description: in vivo
metric: Cmax

[in] What value of Cmax has been recorded for this entry: Cc1[nH]nc(-c2ccncc2)c1-c1ccc(-c2cccc(S(N)(=O)=O)c2)c(C2CC2)c1
[out] 580 nM

----------
- test: in vitro
- condition.description: human, Caco-2
metric: Papp A→B at 2 h, 10 µM (×10⁻⁶ cm/s)
Respond with the bare value in ×10⁻⁶ cm/s.

[in] What value of Papp A→B at 2 h, 10 µM has been recorded for this entry: Cc1[nH]nc(-c2ccncc2)c1-c1ccc(-c2cccc(S(N)(=O)=O)c2)c(C2CC2)c1
[out] 8.78

----------
- test: Volume of distribution at steady state in CD-1 mouse at 0.5 mg/kg, iv by LC-MS/MS analysis
- Type: ADME, organism-based
- condition.description: in vivo, read-out: Vdss
metric: Vd
For clarity, give the value followed by its unit.

[in] What value of Vd has been recorded for this entry: Cc1[nH]nc(-c2ccncc2)c1-c1ccc(-c2cccc(S(N)(=O)=O)c2)c(C2CC2)c1
[out] 2 L/kg

----------
- test: Tmax in CD-1 mouse at 2 mg/kg, po by LC-MS/MS analysis
- Assay type: ADME, organism-based
- condition.description: in vivo
metric: Tmax (h)
Respond with the bare value in h.

[in] What value of Tmax has been recorded for this entry: Cc1[nH]nc(-c2ccncc2)c1-c1ccc(-c2cccc(S(N)(=O)=O)c2)c(C2CC2)c1
[out] 1

----------
- test: MRT in CD-1 mouse at 0.5 mg/kg, iv by LC-MS/MS analysis
- Assay type: ADME, organism-based
- condition.description: in vivo
metric: MRT
For clarity, give the value followed by its unit.

[in] What value of MRT has been recorded for this entry: Cc1[nH]nc(-c2ccncc2)c1-c1ccc(-c2cccc(S(N)(=O)=O)c2)c(C2CC2)c1
[out] 1.01 h
